Biological target: T1, human IL-1α (human, UniProt P01583 113-271)
T1 sequence (looked up): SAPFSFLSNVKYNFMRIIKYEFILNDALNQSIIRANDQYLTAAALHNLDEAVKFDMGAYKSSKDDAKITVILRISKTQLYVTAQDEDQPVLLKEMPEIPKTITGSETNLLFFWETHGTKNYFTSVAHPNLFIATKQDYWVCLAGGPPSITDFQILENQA
Experiment: cell-based or functional assay
QUANTITY: MRC5 IL-1α (nM)
Give the number; nM is assumed, so skip it.

ABT2-108/ABT1-95-3 hu IgG1/K wt (bispecific antibody, V domains shown) VH: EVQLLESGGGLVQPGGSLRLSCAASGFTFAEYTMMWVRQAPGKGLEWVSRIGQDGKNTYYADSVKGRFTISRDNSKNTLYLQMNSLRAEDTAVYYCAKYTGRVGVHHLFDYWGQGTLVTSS VL: DIQMTQSPSSLSASVGDRVTITCRASQPIHGNLRWYQQKPGKAPKLLIYSSSYLQSGVPSRFSGSGSGTDFTLTISSLQPEDFATYHCQQGYRWPVTFGQGTKVEIKR ... 300

With those in mind, consider the next binder.
Query: Could you share which MRC5 IL-1α value was measured for ABT2-65-166/ABT1-95-A5 hu IgG1mut 234, 235/K (bispecific antibody, V domains shown) VH: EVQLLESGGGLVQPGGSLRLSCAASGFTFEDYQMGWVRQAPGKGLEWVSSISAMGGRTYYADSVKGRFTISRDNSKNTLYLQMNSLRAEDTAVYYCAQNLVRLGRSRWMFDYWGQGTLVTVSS VL: DIQMTQSPSSLSASVGDRVTITCRASRTPVRNLRWYQQKPGKAPKLLIYSRSFLEPGVPSRFSGSGSGTDFTLTISSLQPEDFATYHCLQGYRWPPTFGQGTKVEIKR ?
Reply: 0.014
